I'd appreciate it if you could supply Buckwheat, Wild plant response rating values for the items below.
test system: buckwheat, wild; assay: Test D postemergence; type: in vivo, Polygonum convolvulus; settings: postemergence, 62 g ai/ha; scale 0 to 100
Lab note: jot down the number only; don't add units.

# Buckwheat, Wild plant response rating lookup, item CCc1cc(C(=O)NOC(C)C)nn1Cc1cccc(OC(F)(F)F)c1
20

O=C(NC1CC1)c1cc(CCF)n(Cc2ccnc(C(F)(F)F)c2)n1 ?
55

CCc1cc(C(=O)NCC(F)(F)F)nn1Cc1ccnc(SC(F)(F)F)c1 ?
70

Cc1cc(C(=O)NCC(F)(F)F)nn1Cc1ccnc(C(F)(F)F)c1 ?
45

====

I'd appreciate it if you could supply Velvetleaf plant response rating values for the items below.
system: velvetleaf; test: Test A preemergence; type: in vivo, Abutilon theophrasti; details: Preemergence, 1000 g ai/ha; 0 to 100 scale, 0 no effect, 100 complete control
Lab note: jot down the number only; don't add units.

Write down the reported Velvetleaf plant response rating of CCCNC(=O)c1cc(CCC)n(Cc2cccc(OC(F)(F)F)c2)n1 , test system: velvetleaf.
50

CCc1cc(C(=O)NCC(F)(F)F)nn1Cc1cccc(OC(F)(F)F)c1 ?
70

C=CCNC(=O)c1cc(CC)n(Cc2cccc(OC(F)(F)F)c2)n1 ?
0

CCCc1cc(C(=O)NCC(F)(F)F)nn1Cc1cccc(OC(F)(F)F)c1 ?
30

====

test system: barnyardgrass; assay: Test A postemergence; assay type: in vivo, Echinochloa crus-galli; conditions: Postemergence, 125 g ai/ha; 0 to 100 scale, 0 no effect, 100 complete control
So basically, if Barnyardgrass plant response rating comes in under 80 it's rule met, and if it's 80 or more it's rule not met.

Strictly below 80: is that where Barnyardgrass plant response rating of Cc1cc(C(=O)NC2CC2)nn1Oc1ccnc(C(F)(F)F)c1 sits?
rule met

CCCNC(=O)c1cc(CC)n(Oc2ccnc(C(F)(F)F)c2)n1 ?
rule met

Cc1cc(C(=O)NCC(F)(F)F)nn1Cc1cccc(OC(F)(F)F)c1 ?
rule met

CCCNC(=O)c1cc(CC)n(Cc2ccnc(C(F)(F)F)c2)n1 ?
rule not met

CCc1cc(C(=O)NCC(F)(F)F)nn1Cc1cc(C(F)(F)F)nn1C(C)C ?
rule met

CCc1cc(C(=O)NCC(F)(F)F)nn1Cc1ccnc(Br)c1 ?
rule not met

CCCc1cc(C(=O)Nc2ccc(F)cc2)nn1Oc1ccnc(C(F)(F)F)c1 ?
rule met

CCc1cc(C(=O)NCC(F)(F)F)nn1Oc1cccc(C(F)(F)F)c1 ?
rule met

====

system: corn; experiment: Test A postemergence; assay type: in vivo, Zea mays; conditions: postemergence, 125 g ai/ha, about 10 days, visual rating on 0 to 100 scale (0 no effect, 100 complete control)
I'd appreciate it if you could supply Corn plant response rating values for the items below.
Lab note: jot down the number only; don't add units.

# Corn plant response rating lookup, item CCc1cc(C(=O)NCC(F)(F)C(F)(F)F)nn1Cc1ccnc(C(F)(F)F)c1
30

CCCCNC(=O)c1cc(I)n(Cc2cccc(C(F)(F)F)c2)n1 ?
0

CCc1cc(C(=O)NCC#N)nn1Cc1ccnc(C(F)(F)F)c1 ?
0

Cc1cc(C(=O)NCC(F)(F)F)nn1Cc1cccc(OC(F)(F)F)c1 ?
10

CCc1cc(C(=O)NC2CC2)nn1Cc1nnc(C(F)(F)F)o1 ?
0

CCCc1cc(C(=O)NC(C)C)nn1Cc1cc(C(F)(F)F)nn1C ?
90

CCc1cc(C(=O)NC(C)C)nn1Cc1cc(C(F)(F)F)nn1CC ?
30
